molecular target: Recombinant human tissue kallikrein (KLK1) (Homo sapiens (Human), UniProt P06870); experiment: KLK1 kallikrein activity inhibition assay (Pro-Phe-Arg-AMC substrate); format: biochemical; conditions: Table B
Sequence (P06870 25-262): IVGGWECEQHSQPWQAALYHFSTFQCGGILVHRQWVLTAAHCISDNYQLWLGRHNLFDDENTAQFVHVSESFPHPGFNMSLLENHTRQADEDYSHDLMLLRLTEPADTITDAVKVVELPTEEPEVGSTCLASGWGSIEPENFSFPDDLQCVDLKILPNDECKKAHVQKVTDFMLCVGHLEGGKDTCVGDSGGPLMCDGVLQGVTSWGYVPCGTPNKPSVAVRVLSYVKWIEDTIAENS
metric: IC50

Worked cases, answers included:
O=C(c1ccccc1Cl)n1nc(-c2cccn(Cc3ccncc3)c2=O)cc1NCc1ccc(Cl)s1: > 100 µM
COc1ccccc1C(=O)n1nc(-c2cccn(Cc3cccnn3)c2=O)cc1NCc1ccc(Cl)s1: > 100 µM
O=C(c1ccoc1)n1nc(-c2ccc[nH]c2=O)cc1NCc1ccc(Cl)s1: 10 to 100 µM
Nc1ccccc1C(=O)n1nc(-c2ccco2)cc1NCc1ccc(Cl)s1: 10 to 100 µM
O=C(O)Cn1cccc(-c2cc(NCc3ccc(Cl)s3)[nH]n2)c1=O: > 100 µM

Q: What measured IC50 goes with O=C(c1cccc2c1OCCO2)n1nc(-c2cccn(Cc3ccccn3)c2=O)cc1NCc1ccc(Cl)s1 ?
Ans: 10 to 100 µM

Q: What measured IC50 goes with O=C(c1ccsc1)n1nc(-c2cccnn2)cc1NCc1ccc(Cl)s1 ?
Ans: > 100 µM

Q: What measured IC50 goes with O=C(c1ccsc1)n1nc(-c2ccccn2)cc1NCc1ccc(Cl)s1 ?
Ans: > 100 µM

Q: What measured IC50 goes with COc1ccccc1C(=O)n1nc(-c2ccc[nH]c2=O)cc1NCc1ccc(Cl)s1 ?
Ans: > 100 µM

Q: What measured IC50 goes with O=C(c1ccoc1)n1nc(-c2cccn(Cc3ccco3)c2=O)cc1NCc1ccc(Cl)s1 ?
Ans: 10 to 100 µM

====

target: Human thrombin (Homo sapiens (Human)); experiment: Thrombin protease activity inhibition assay (chromogenic substrate S-2238); type: biochemical; details: 3 nM thrombin, 125 μM S-2238, 10 min pre-incubation, RT
pIC50: −log10 of the molar value.
pIC50 for assorted molecules

Worked cases, answers included:
COc1ccc(C(=O)n2nc(-c3ccc[nH]c3=O)cc2NCc2ccc(Cl)s2)c(OC)c1: > 7.00
CC(C)(C)C(=O)n1nc(-c2cccn(Cc3cccnc3)c2=O)cc1NCc1ccc(Cl)s1: > 7.00
O=C(c1ccoc1)n1nc(-c2cccn(Cc3cccnn3)c2=O)cc1NCc1ccc(Cl)s1: > 7.00
CC1(C(=O)n2nc(-c3cccn(Cc4ccncc4)c3=O)cc2NCc2ccc(Cl)s2)CCOCC1: > 7.00
O=C(c1ccc(N2CCOCC2)cc1)n1nc(-c2cccn(Cc3ccncc3)c2=O)cc1NCc1ccc(Cl)s1: > 7.00

Q: What measured pIC50 goes with CC(C)(C)C(=O)n1nc(-c2cccn(Cc3ccco3)c2=O)cc1NCc1ccc(Cl)s1 ?
Ans: > 7.00

Q: What measured pIC50 goes with O=C(c1ccoc1)n1nc(-c2cccn(Cc3ccccc3Cl)c2=O)cc1NCc1ccc(Cl)s1 ?
Ans: > 7.00

Q: What measured pIC50 goes with CN(C)c1cc(-c2ccc[nH]c2=O)nn1C(=O)c1ccco1 ?
Ans: < 4.00

Q: What measured pIC50 goes with O=C(c1ccoc1)n1nc(-c2cccn(Cc3ccsc3)c2=O)cc1NCc1ccc(Cl)s1 ?
Ans: > 7.00

Q: What measured pIC50 goes with O=c1c(-c2cc(NCc3ccc(Cl)s3)n[nH]2)cccn1CCc1ccccn1 ?
Ans: 4.00 to 5.00

Q: What measured pIC50 goes with COCCn1cccc(-c2cc(NCc3ccc(Cl)s3)n(C(=O)c3ccccc3)n2)c1=O ?
Ans: > 7.00

Q: What measured pIC50 goes with O=C(c1ccsc1)n1nc(-c2cccn(Cc3ccsc3)c2=O)cc1NCc1ccc(Cl)s1 ?
Ans: > 7.00

Q: What measured pIC50 goes with O=C(c1ccccc1N1CCOCC1)n1nc(-c2ccc[nH]c2=O)cc1NCc1ccc(Cl)s1 ?
Ans: 5.00 to 6.00

Q: What measured pIC50 goes with COc1ccccc1C(=O)n1nc(-c2cccn(CC(=O)OC(C)(C)C)c2=O)cc1NCc1ccc(Cl)s1 ?
Ans: > 7.00

Q: What measured pIC50 goes with O=C(c1ccoc1)n1nc(-c2cccn(CCN3CCOCC3)c2=O)cc1NCc1ccc(Cl)s1 ?
Ans: > 7.00

Q: What measured pIC50 goes with COc1ccc(C(=O)n2nc(-c3cccn(Cc4cccs4)c3=O)cc2NCc2ccc(Cl)s2)c(OC)c1 ?
Ans: > 7.00

Q: What measured pIC50 goes with O=C(c1ccco1)n1nc(-c2cccn(Cc3ccccn3)c2=O)cc1NCc1ccc(Cl)s1 ?
Ans: > 7.00

====

molecular target: UniProtKB P03952; test: KLKB1 kallikrein activity inhibition assay (chromogenic substrate S-2302); format: biochemical; conditions: 3 nM KLKB1, 250 μM S-2302, 10 min pre-incubation, RT
pIC50: −log10 of the molar value.
pIC50 for assorted molecules

Worked cases, answers included:
O=C(NCc1ccc2[nH]cc(Cl)c2c1)[C@H]1CC(=O)N(Cc2ccccc2)C1: < 4.00
Cc1cc(N(C)c2ccc(F)cc2)nc(N[C@@H]2CCc3c(N)cccc3C2)n1: < 4.00
Cc1cc(N(C)c2ccccc2)nc(N[C@H]2CCc3c(N)cccc3C2)n1: < 4.00
Cc1cc(N(C)c2cccc(F)c2)nc(N[C@@H]2CCc3c(N)cccc3C2)n1: < 4.00
Cn1cc(Cl)c2cc(CNC(=O)[C@H]3CC(=O)N(Cc4ccc(Cl)cc4)C3)ccc21: 4.00 to 5.00

Q: What measured pIC50 goes with Cc1cc(N(C)c2ccccc2F)nc(N[C@@H]2CCc3c(N)cccc3C2)n1 ?
Ans: < 4.00

Q: What measured pIC50 goes with Cc1cc(N(C)c2ccccc2Cl)nc(N[C@H]2CCc3c(N)cccc3C2)n1 ?
Ans: 4.00 to 5.00

Q: What measured pIC50 goes with O=C(NCc1ccc2[nH]cc(Cl)c2c1)[C@H]1CC(=O)N(Cc2cccc(Cl)c2)C1 ?
Ans: < 4.00

Q: What measured pIC50 goes with Cc1cc(N(C)c2ccc(Cl)cc2)nc(N[C@H]2CCc3c(N)cccc3C2)n1 ?
Ans: < 4.00

Q: What measured pIC50 goes with Cc1cc(N(C)c2cccc(Cl)c2)nc(N[C@H]2CCc3c(N)cccc3C2)n1 ?
Ans: < 4.00

Q: What measured pIC50 goes with O=C(NCc1ccc2[nH]cc(Cl)c2c1)[C@H]1CC(=O)N(Cc2ccccc2Cl)C1 ?
Ans: 4.00 to 5.00

Q: What measured pIC50 goes with O=C(NCc1ccc2[nH]cc(Cl)c2c1)[C@@H]1CC(=O)N(Cc2ccc(Cl)cc2)C1 ?
Ans: < 4.00

====

IC50 for assorted molecules
target: Human KLKB1 (Homo sapiens (Human), UniProt P03952); assay: KLKB1 kallikrein activity inhibition assay (chromogenic substrate S-2302); format: biochemical; conditions: Table C
Sequence (P03952 391-638 limits assumed): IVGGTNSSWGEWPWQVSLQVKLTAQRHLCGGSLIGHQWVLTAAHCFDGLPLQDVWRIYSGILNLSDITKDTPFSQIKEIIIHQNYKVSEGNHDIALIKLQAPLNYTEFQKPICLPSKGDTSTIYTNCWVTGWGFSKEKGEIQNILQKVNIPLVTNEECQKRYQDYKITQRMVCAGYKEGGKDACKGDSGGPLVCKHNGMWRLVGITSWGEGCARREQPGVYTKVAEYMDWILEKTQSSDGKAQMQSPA
Sequence (P03952 20-390 partner limits assumed): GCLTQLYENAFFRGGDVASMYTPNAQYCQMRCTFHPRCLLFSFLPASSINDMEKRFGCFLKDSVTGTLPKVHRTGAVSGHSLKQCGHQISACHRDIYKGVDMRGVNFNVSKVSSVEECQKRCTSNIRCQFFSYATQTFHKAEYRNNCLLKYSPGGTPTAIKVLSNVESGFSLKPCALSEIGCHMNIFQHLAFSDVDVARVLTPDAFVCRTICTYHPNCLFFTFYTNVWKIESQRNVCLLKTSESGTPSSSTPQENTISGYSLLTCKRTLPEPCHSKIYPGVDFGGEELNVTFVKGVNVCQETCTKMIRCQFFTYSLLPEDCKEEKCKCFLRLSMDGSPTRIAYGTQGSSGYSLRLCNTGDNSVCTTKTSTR

Worked cases, answers included:
COc1ccccc1C(=O)n1nc(-c2cccnc2)nc1SC: 1 to 10 µM
COc1ccc(C(=O)n2nc(C3CCOCC3)nc2NCc2ccc(Cl)s2)c(OC)c1: 0.1 to 1 µM
O=C(c1ccco1)n1nc(-c2cccnc2)nc1NCc1ccc(F)cc1: 1 to 10 µM

# context switch: different molecule, same IC50
Q: Lab note: need IC50 for COc1ccccc1C(=O)n1nc(C2CCCO2)nc1NCc1ccc(Cl)s1 (stereo not drawn) on Human KLKB1 (Homo sapiens (Human), UniProt P03952), anyone have it?
Ans: 0.1 to 1 µM

====

experiment: Pharmacokinetics in mice (i.v. and p.o.); assay type: in vivo, male CD-1 mice; settings: mouse, plasma, po; male CD-1 mice, single p.o. dose 5 mg/kg, dose type A (5% dimethyl acetamide, tetraethylene glycol); read-out: p.o. AUC
metric: AUC (ng·h/mL)
Numbers only; they are read as ng·h/mL.

Q: What measured AUC goes with CC(C)(C)C(=O)n1nc(C2CCNCC2)c(F)c1NCc1ccc(Cl)s1 [Cmpd 24] ?
Ans: 600

====

molecular target: Human thrombin (Homo sapiens (Human)); test: Thrombin protease activity inhibition assay (chromogenic substrate S-2238); assay type: biochemical; conditions: 3 nM thrombin, 125 μM S-2238, 10 min pre-incubation, RT
metric: IC50

Worked cases, answers included:
O=C(c1cccs1)n1nc(-c2cccn(Cc3ccccn3)c2=O)cc1NCc1ccc(Cl)s1: < 100 nM
O=c1c(-c2cc(NCc3ccc(Cl)s3)[nH]n2)cccn1Cc1nnn[nH]1: 10000 to 100000 nM
COCC(C)(C)C(=O)n1nc(-c2cccn(Cc3ccco3)c2=O)cc1NCc1ccc(Cl)s1: < 100 nM
COc1ccc(C(=O)n2nc(-c3cccn(Cc4ccccc4)c3=O)cc2NCc2ccc(Cl)s2)c(OC)c1: < 100 nM
O=c1c(-c2cc(NCc3ccc(Cl)s3)[nH]n2)cccn1Cc1ccc(Cl)s1: > 100000 nM
O=C(c1ccco1)n1nc(-c2cccn(Cc3cccnn3)c2=O)cc1NCc1ccc(Cl)s1: > 100000 nM

Q: What measured IC50 goes with O=C(c1ccsc1)n1nc(-c2cccn(Cc3cccs3)c2=O)cc1NCc1ccc(Cl)s1 ?
Ans: < 100 nM

Q: What measured IC50 goes with CC(C)(C)C(=O)n1nc(-c2cccn(CC#N)c2=O)cc1NCc1ccc(Cl)s1 ?
Ans: < 100 nM

Q: What measured IC50 goes with COc1ccccc1C(=O)n1nc(-c2cccn(Cc3ccc(Cl)cc3)c2=O)cc1NCc1ccc(Cl)s1 ?
Ans: < 100 nM

Q: What measured IC50 goes with CC(C)(C)C(=O)n1nc(-c2cccn(Cc3ccc4ccccc4c3)c2=O)cc1NCc1ccc(Cl)s1 ?
Ans: < 100 nM

Q: What measured IC50 goes with Cn1cccc(-c2cc(NCc3ccc(Cl)s3)n(C(=O)c3ccccc3)n2)c1=O ?
Ans: < 100 nM
